- Test system: OVCAR-3 ovarian
- experiment: NCI tumour cell line growth inhibition, 48 h
Recorded TGI by entry
endpoint-label: TGI

1. C[C@]12CC[C@H](O)CC1=CC[C@@H]1[C@@H]2CC[C@]2(C)C(=O)[C@@H](N3CCOCC3)C[C@@H]12: > 100 µM
2. CC(O)C(N=Cc1ccccc1[O-])C(=O)[O-].CC(O)C(N=Cc1ccccc1[O-])C(=O)[O-].[Co+2] (centres undefined): > 100 µM
3. CCCCCN=Cc1c(O)c(O)c(C(C)C)c2cc(C)c(-c3c(C)cc4c(C(C)C)c(O)c(O)c(C=NCCCCC)c4c3O)c(O)c12: 65 µM
4. Cc1cc2nc3c(C#N)c(-c4ccccc4)cc(Nc4ccc(Cl)cc4)n3c2cc1C: > 100 µM

###

- System: SNB-19 CNS
- experiment: NCI tumour cell line growth inhibition, 48 h
Recorded GI50 by entry
endpoint-label: GI50

1. CCC[CH2][Sn]([CH2]CCC)([CH2]CCC)[O]C(=O)CC: 0.169 µM
2. Cc1c2cccnc2c(C)c2c1c1cc(CO)ccc1n2C: 2.67 µM
3. CC(=O)OC1Oc2ccccc2-c2oc(=O)c(-c3cc(=O)oc4cc(O)ccc34)cc21 (stereo not drawn): 26.6 µM
4. C=C(C)[C@@]12OC3(/C=C/C=C/CCCCC)O[C@@H]1[C@@H]1[C@@H]4O[C@]4(CO)[C@@H](O)[C@]4(O)C(=O)C(C)=C[C@H]4[C@@]1(O3)[C@H](C)[C@H]2OC(=O)c1ccccc1: 1.92 µM
5. COc1ccc(N2C(=O)C(c3ccccc3)(c3ccccc3)C23C(=O)N(C)c2ccccc23)cc1 (stereo not drawn): > 100 µM
6. Ic1ccc(Nc2nc3nonc3nc2Nc2ccc(I)cc2)cc1: 0.324 µM
7. COC(=O)c1cc2c(cc1O)[C@@H](NC(C)=O)CCc1cc(OC)c(OC)c(OC)c1-2: 0.0355 µM
8. C=C(F)C(=O)N1CCN(c2nc(OC[C@@H]3CCCN3C)nc3c2CCN(c2cccc4cccc(Cl)c24)C3)C[C@@H]1CC#N: 1.19 µM

###

Recorded TGI by entry
- System: KM12 colon
- experiment: NCI tumour cell line growth inhibition, 48 h
endpoint-label: TGI (µM)

1) C/C1=C\CC[C@@]2(C)O[C@@H]2[C@H]2OC(=O)[C@@H](CN(C)C)[C@@H]2CC1: 29.1
2) O=C(c1ccccc1)c1cc(Cl)ccc1OCCCCN1CCN(CCCCOc2ccc(Cl)cc2C(=O)c2ccccc2)CC1: 4.55
3) C=C(F)C(=O)N1CCN(c2nc(OC[C@@H]3CCCN3C)nc3c2CCN(c2cccc4cccc(Cl)c24)C3)C[C@@H]1CC#N: 2.56
4) COc1ccc2nc3ccc(OC)cc3c(S(=O)CCCl)c2c1 (stereo not given): 37.3

###

- Test system: MDA-MB-231 breast
- experiment: NCI tumour cell line growth inhibition, 48 h; in the data active = GI50 below about 0.43 µM; inactive = the rest
Outcome codes: active, inactive

1. NCCCNc1nc2ccccc2c2c(=O)c3cc(OC(F)(F)F)ccc3sc12: inactive
2. Cn1cc(C2=C(c3ccc4ccccc4c3)C(=O)NC2=O)c2ccccc21: inactive
3. O=S(=O)([O-])c1ccc2c(c1)-c1nc-2nc2[n-]c(nc3nc(nc4[n-]c(n1)c1ccc(S(=O)(=O)[O-])cc41)-c1cc(S(=O)(=O)[O-])ccc1-3)c1ccc(S(=O)(=O)[O-])cc21.[Cu+2].[Na+]: inactive
4. CCOc1nc(-c2ccccc2)cc2c(O)c(-c3nnco3)[nH]c(=O)c12: inactive
5. O=C(c1ccccc1)c1cc(Cl)ccc1OCCCCN1CCN(CCCCOc2ccc(Cl)cc2C(=O)c2ccccc2)CC1: inactive
6. Cn1c(=O)c2c(nc(Nc3cc(=O)[nH]c(=O)[nH]3)n2Cc2ccccc2)n(C)c1=O: inactive
7. CNCCNc1c2c(c(NCCNC)c3c(CN(C)C)c[nH]c13)C(=O)c1ccccc1C2=O: inactive
8. COc1ccc(N2C(=O)C(c3ccccc3)(c3ccccc3)C23C(=O)N(C)c2ccccc23)cc1 (stereo not given): inactive
9. C=C(C)[C@@]12OC3(/C=C/C=C/CCCCC)O[C@@H]1[C@@H]1[C@@H]4O[C@]4(CO)[C@@H](O)[C@]4(O)C(=O)C(C)=C[C@H]4[C@@]1(O3)[C@H](C)[C@H]2OC(=O)c1ccccc1: active
10. CCN1CCN(c2ccc(Nc3cc(N(C)C(=O)Nc4c(Cl)c(OC)cc(OC)c4Cl)ncn3)cc2)CC1: inactive
11. C/C(=C\CCc1ccoc1)CC/C=C(\C)CCCC1=CC(=O)OC1: inactive
12. COc1ccc(C(=O)c2cc(OC)c(C)c(OC)c2)cc1OC(=O)CCl: active
13. COCCOc1cc(F)c2c(Nc3ccc(NC(=O)Cn4cc(C(C)C)nn4)cc3)ncnc2c1: inactive
14. CCC[CH2][Sn]([CH2]CCC)([CH2]CCC)[O]C(=O)CC: active
15. C[C@H]1c2cccc(O)c2C(O)=C2C(=O)[C@]3(O)C(O)=C(C(N)=O)C(=O)[C@@H](N(C)C)[C@@H]3[C@@H](O)[C@@H]21: inactive

###

- Tested on: RXF 393 renal
- experiment: NCI tumour cell line growth inhibition, 48 h
endpoint-label: TGI

1. Clc1c(Cl)c(Cl)c2nn(C3CCCO3)nc2c1Cl (stereo unspecified): > 100 µM
2. O=C(O)c1n[nH]nc1Cl: > 100 µM
3. COc1cc(C2c3cc4c(cc3OC(N3CCCC3)C2C)OCO4)cc(OC)c1O (stereo unspecified): > 42.7 µM
4. CC(=O)n1nc(-c2ccccc2)n(/N=C/c2ccc([N+](=O)[O-])cc2)c1=O: > 100 µM
5. COc1cc(Nc2cnc3cc(F)c(F)cc3n2)cc(OC)c1OC: > 100 µM
6. COc1cc(-c2cc(=O)c3c(OC)c(OC)c(OC)c(OC)c3o2)c(OC)c(OC)c1OC: > 100 µM
7. O=C1c2ccccc2C2(Br)C(=O)c3ccccc3C12 (stereo unspecified): > 100 µM
8. CC(C)c1ccc(Nc2ccc3c(OCCCN4CCN(C)CC4)cccc3n2)cc1: 22.4 µM
9. c1ccc2sc(C3(N4CCCC4)CCCCCC3)cc2c1: 25.7 µM
10. C=C(C=O)[C@@H]1C2OC(=O)C(=C)[C@@H]2CC(O)[C@@]1(C)CC (stereo partly specified): 10.3 µM
11. C[As](C)SC1OC(CO)C(O)C1O (stereo unspecified): 2.37 µM

###

- System: CAKI-1 renal
- experiment: NCI tumour cell line growth inhibition, 48 h; in the data active = GI50 below about 0.43 µM; inactive = the rest
Outcome codes: TRUE = active, FALSE = inactive

1. CC/C(=C(/c1ccc(OCCN(C)C)cc1)c1ccc(OC(=O)CCCCC(=O)c2c(C)[nH]c(/C=C3\N=C(c4ccc[nH]4)C=C3OC)c2C)cc1)c1ccccc1: FALSE
2. CCOc1nc(-c2ccccc2)cc2c(O)c(-c3nnco3)[nH]c(=O)c12: FALSE
3. CC(C)c1ccc(Nc2ccc3c(OCCCN4CCN(C)CC4)cccc3n2)cc1: FALSE
4. C/C(=C\CCc1ccoc1)CC/C=C(\C)CCCC1=CC(=O)OC1: FALSE
5. COc1ccc2c(c1)C(C)Cc1c(Cl)ncnc1N2C (stereo not drawn): FALSE
6. C/C1=C\CC[C@@]2(C)O[C@@H]2[C@H]2OC(=O)[C@@H](CN(C)C)[C@@H]2CC1: FALSE
7. O=C(OCc1ccc2cccc(O)c2n1)N1CCN(C(=O)c2cc3cc(F)ccc3[nH]2)CC1: TRUE
8. Oc1ccc(Cl)cc1Cc1cc(Cl)cc(Cl)c1O: FALSE
9. O=C(c1ccccc1)c1cc(Cl)ccc1OCCCCN1CCN(CCCCOc2ccc(Cl)cc2C(=O)c2ccccc2)CC1: FALSE
10. CC1OC2CC(=O)OC2C2=C1C(=O)c1c(O)cccc1C2=O (stereo not drawn): TRUE
11. CC(C)=C[C@@H]1C[C@H](C)[C@H]2CC[C@H](C)C3=C2[C@](O)(OC3=O)[C@]1(C)O: FALSE
12. CCN1CCN(c2ccc(Nc3cc(N(C)C(=O)Nc4c(Cl)c(OC)cc(OC)c4Cl)ncn3)cc2)CC1: FALSE
13. COc1ccc(N2C(=O)C(c3ccccc3)(c3ccccc3)C23C(=O)N(C)c2ccccc23)cc1 (stereo not drawn): FALSE
14. COC(=O)c1cc2c(cc1O)[C@@H](NC(C)=O)CCc1cc(OC)c(OC)c(OC)c1-2: TRUE
15. C=C(F)C(=O)N1CCN(c2nc(OC[C@@H]3CCCN3C)nc3c2CCN(c2cccc4cccc(Cl)c24)C3)C[C@@H]1CC#N: FALSE
16. C=C(C)[C@@]12OC3(/C=C/C=C/CCCCC)O[C@@H]1[C@@H]1[C@@H]4O[C@]4(CO)[C@@H](O)[C@]4(O)C(=O)C(C)=C[C@H]4[C@@]1(O3)[C@H](C)[C@H]2OC(=O)c1ccccc1: TRUE
17. O=c1n(CC2CO2)c(=O)n(CC2CO2)c(=O)n1CC1CO1 (stereo not drawn): FALSE
18. CCC[CH2][Ge]([CH2]CCC)([CH2]CCC)[O]C(=O)CC(=O)c1ccccc1: FALSE
